Target: Endothelial lipase (EL) (Homo sapiens (Human))
Assay: EL assay: endothelial lipase activity with fluorescent substrate A10070 in DMPG vesicles
Format: biochemical
Rule for this label: Y means IC50 is less than 10 nM; N means IC50 is at least 10 nM.

Some solved entries appear below for comparison.
- COCCNC(=O)c1ccc(-c2ccc3nc(C(C(=O)NCCS(N)(=O)=O)S(=O)(=O)Cc4cc(Cl)cc(Cl)c4)sc3c2)cc1 (stereo not shown): N
- Cc1cc2nc(C(C(=O)NCCS(N)(=O)=O)S(=O)(=O)Cc3ccccc3)sc2cc1-c1ccc(C(=O)N2CCOCC2)cc1 (stereo not shown): Y
- COCc1ccc(-c2ccc3nc(C(C(=O)NCCS(N)(=O)=O)S(C)(=O)=O)sc3c2)cc1 (stereo not shown): Y
- COCCNC(=O)c1ccc(-c2cc3sc(C(C(=O)NCc4nnc(C)o4)S(=O)(=O)CCOC)nc3cc2F)cc1 (stereo not shown): N

Threshold test, IC50 < 10 nM: CS(=O)(=O)C(C(=O)NCCS(N)(=O)=O)c1nc2ccc(-c3ccc(CCO)cc3)cc2s1 (stereo not shown)
Y

Threshold test, IC50 < 10 nM: NS(=O)(=O)CCNC(=O)C(c1nc2ccc(C(=O)N3CCc4ccccc4C3)cc2s1)S(=O)(=O)CCC(F)(F)F (stereo not shown)
N

* * *

Entries and their IC50
Target: Endothelial lipase (EL) (Homo sapiens (Human), UniProt Q9Y5X9)
Sequence (Q9Y5X9 21-500): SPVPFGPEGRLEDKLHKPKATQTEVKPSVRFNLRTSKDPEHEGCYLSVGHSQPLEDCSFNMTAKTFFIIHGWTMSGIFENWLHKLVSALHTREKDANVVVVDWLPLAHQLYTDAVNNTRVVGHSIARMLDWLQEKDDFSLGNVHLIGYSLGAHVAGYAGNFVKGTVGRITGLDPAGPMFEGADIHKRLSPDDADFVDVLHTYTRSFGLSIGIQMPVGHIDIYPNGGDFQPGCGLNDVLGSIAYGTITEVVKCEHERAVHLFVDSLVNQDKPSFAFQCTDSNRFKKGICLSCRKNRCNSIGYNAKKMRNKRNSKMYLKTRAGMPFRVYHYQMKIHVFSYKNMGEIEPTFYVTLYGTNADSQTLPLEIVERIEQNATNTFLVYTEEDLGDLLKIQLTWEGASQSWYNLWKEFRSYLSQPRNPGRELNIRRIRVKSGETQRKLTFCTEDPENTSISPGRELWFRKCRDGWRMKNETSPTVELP
Assay: EL assay: endothelial lipase activity with fluorescent substrate A10070 in DMPG vesicles
Format: biochemical
Dear colleague, please return just the value in nM, with no unit written.

Answered examples (2):
- NS(=O)(=O)CCNC(=O)C(c1nc2ccc(-c3cccc(Cl)c3)cc2s1)S(=O)(=O)Cc1ccc(F)cc1 (stereo not shown): 4.8
- COCCn1ccc(-c2ccc3nc(C(C(=O)NCCS(N)(=O)=O)S(=O)(=O)Cc4ccc(C(F)(F)F)cc4)sc3c2)cc1=O (stereo not shown): 13.5

Suppose we examine the compound Cn1cc(-c2ccc3nc(C(C(=O)NCCS(N)(=O)=O)S(=O)(=O)Cc4ccc(C(F)(F)F)cc4)sc3c2)ccc1=O (stereo not shown) ; what IC50 value has been reported?
121

* * *

Target: Endothelial lipase (EL) (Homo sapiens (Human))
Test: EL assay: endothelial lipase activity with fluorescent substrate A10070 in DMPG vesicles
Format: biochemical
Entries and their IC50
Dear colleague, please return just the value in nM, with no unit written.

• COCCS(=O)(=O)C(C(=O)NCc1cc(C)no1)c1nc2ccc(-c3ccccc3)cc2s1 (stereo not shown) = 4.9

Attention now turns to another entry.
Suppose we examine the molecule COc1ccc(CN(Cc2ccc(OC)cc2)S(=O)(=O)CCNC(=O)C(c2nc3ccc(-c4ccccc4)cc3s2)S(C)(=O)=O)cc1 (stereo not shown) ; what IC50 value has been reported?
80

* * *

Target: hepatic lipase (HL) (Homo sapiens (Human))
Assay: HL assay: hepatic lipase activity with fluorescent substrate A10070 in DMPG vesicles
Assay type: biochemical
pIC50: −log10 of the molar value.
Respond with Condition met for pIC50 values of 7 and above, Condition not met for values below.

Some solved entries appear below for comparison.
* NS(=O)(=O)CCNC(=O)C(c1nc2ccc(-c3ccc(C(=O)N4CCOCC4)cc3)cc2s1)S(=O)(=O)Cc1ccccc1 (centres unmarked) | Condition not met
* CN(C)C(=O)c1ccc(-c2ccc3nc(C(C(=O)NCCS(N)(=O)=O)S(=O)(=O)CCC(F)(F)F)sc3c2)cc1F (centres unmarked) | Condition met
* COCc1ccc(-c2ccc3nc(C(C(=O)NCCS(N)(=O)=O)S(C)(=O)=O)sc3c2)cc1 (centres unmarked) | Condition met
* NS(=O)(=O)CCNC(=O)C(c1nc2ccc(-c3ccccc3)cc2s1)S(=O)(=O)Cc1ccccc1 (centres unmarked) | Condition met
* NS(=O)(=O)CCNC(=O)C(c1nc2ccc(-c3cccc(C(=O)N4CCCC(F)(F)C4)c3)cc2s1)S(=O)(=O)CCC(F)(F)F (centres unmarked) | Condition met
* NCCS(=O)(=O)C(C(=O)NCCS(N)(=O)=O)c1nc2ccc(-c3ccc(C(=O)N4CCOCC4)cc3)cc2s1 (centres unmarked) | Condition met
* NS(=O)(=O)CCNC(=O)C(c1nc2ccc(-c3cncnc3)cc2s1)S(=O)(=O)CCN1CCOCC1 (centres unmarked) | Condition not met
* Cc1cc2nc(C(C(=O)NCCS(N)(=O)=O)S(C)(=O)=O)sc2cc1-c1ccc(C(=O)O)cc1 (centres unmarked) | Condition not met

In the following, a different compound is considered.
Check this compound for pIC50 at or above 7: COCCn1ccc(-c2ccc3nc(C(C(=O)NCCS(N)(=O)=O)S(=O)(=O)Cc4ccc(C(F)(F)F)cc4)sc3c2)cc1=O (centres unmarked)
Condition not met

* * *

Molecular target: hepatic lipase (HL) (Homo sapiens (Human), UniProt P11150)
Sequence (P11150 23-499, species assumed): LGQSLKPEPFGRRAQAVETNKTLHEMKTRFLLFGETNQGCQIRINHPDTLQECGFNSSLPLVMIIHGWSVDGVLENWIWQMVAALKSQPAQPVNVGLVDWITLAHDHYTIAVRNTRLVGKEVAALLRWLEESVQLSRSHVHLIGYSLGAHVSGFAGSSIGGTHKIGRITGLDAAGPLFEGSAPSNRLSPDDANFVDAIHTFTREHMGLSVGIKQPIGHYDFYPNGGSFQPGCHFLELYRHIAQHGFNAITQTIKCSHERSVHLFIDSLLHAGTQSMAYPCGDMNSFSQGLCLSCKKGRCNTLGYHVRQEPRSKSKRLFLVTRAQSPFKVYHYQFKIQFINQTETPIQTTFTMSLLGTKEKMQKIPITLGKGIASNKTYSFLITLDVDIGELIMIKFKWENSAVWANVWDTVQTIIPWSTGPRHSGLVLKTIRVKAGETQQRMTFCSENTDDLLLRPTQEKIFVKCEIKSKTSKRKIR
Assay: HL assay: hepatic lipase activity with fluorescent substrate A10070 in DMPG vesicles
Type: biochemical
Settings: HL partially purified from conditioned media of COS cells; 30 min incubation with compound at 37° C.; A10070/DMPG vesicles
assay-metric: pIC50
Kindly note that pIC50 refers to -log10 of the concentration in mol/L and answer with the value alone.

Answered examples (2):
• CS(=O)(=O)C(C(=O)NCCS(N)(=O)=O)c1nc2ccc(-c3ccc4c(c3)CC(=O)N4)cc2s1 (centres unmarked) [Example B180] = 6.77
• CS(=O)(=O)C(C(=O)NCCS(N)(=O)=O)c1nc2ccc(-c3cnn(C4CCNCC4)c3)cc2s1 (centres unmarked) [Example B98] = 6.33

For the record COCCNC(=O)c1cccc(-c2ccc3nc(C(C(=O)NCCS(N)(=O)=O)S(=O)(=O)CCC(F)(F)F)sc3c2)c1 (centres unmarked) [Example B202] , what value of pIC50 is listed for hepatic lipase (HL) (Homo sapiens (Human), UniProt P11150)?
6.77

For the record COCCNC(=O)c1ccc(-c2ccc3nc(C(C(=O)NCCS(N)(=O)=O)S(=O)(=O)Cc4ccccc4)sc3c2)cc1 (centres unmarked) [Example B99] , what value of pIC50 is listed for hepatic lipase (HL) (Homo sapiens (Human), UniProt P11150)?
7.26

For the record NS(=O)(=O)CCNC(=O)C(c1nc2ccc(-c3ccc(C(=O)N4CCOCC4)cc3)cc2s1)S(=O)(=O)CCN1CCOCC1 (centres unmarked) [Example B157] , what value of pIC50 is listed for hepatic lipase (HL) (Homo sapiens (Human), UniProt P11150)?
6.83

For the record CS(=O)(=O)C(C(=O)NCCS(N)(=O)=O)c1nc2ccc(-c3ccc(C(=O)N4CC(F)(F)C4)cc3)cc2s1 (centres unmarked) [Example B166] , what value of pIC50 is listed for hepatic lipase (HL) (Homo sapiens (Human), UniProt P11150)?
7.89

* * *

Target: hepatic lipase (HL) (Homo sapiens (Human))
Test: HL assay: hepatic lipase activity with fluorescent substrate A10070 in DMPG vesicles
Format: biochemical
Entries and their log10(IC50)
Recorded IC50 (log10, nM)

* NS(=O)(=O)CCNC(=O)C(c1nc2cc(-c3ccc(F)nc3)ccc2s1)S(=O)(=O)Cc1ccc(OC(F)(F)F)cc1 (stereo not drawn) | 1.83
* CC(C)Cn1cc(-c2ccc3nc(C(C(=O)NCCS(N)(=O)=O)S(C)(=O)=O)sc3c2)cn1 (stereo not drawn) | 1.61
* CS(=O)(=O)C(C(=O)NCCS(N)(=O)=O)c1nc2cc(-c3ccnc(O)c3)ccc2s1 (stereo not drawn) | 1.98
* CS(=O)(=O)C(C(=O)NCCS(N)(=O)=O)c1nc2ccc(-c3ccc(C(=O)N4CC[C@@H](O)C4)cc3)cc2s1 (stereo partly drawn) | 2.42
* COCCNC(=O)c1ccc(-c2ccc3nc(C(C(=O)NCCS(N)(=O)=O)S(=O)(=O)Cc4ccc(OC(F)(F)F)cc4)sc3c2)cc1 (stereo not drawn) [Example B282] | 2.49
* CS(=O)(=O)C(C(=O)NCc1cccc(S(N)(=O)=O)c1)c1nc2ccc(-c3ccccc3)cc2s1 (stereo not drawn) | 1.17
* CS(=O)(=O)C(C(=O)NCCS(N)(=O)=O)c1nc2cc(-c3ccccc3F)ccc2s1 (stereo not drawn) | 1.14

Attention now turns to another entry.
For the record CC(=O)Nc1ccc(-c2ccc3nc(C(C(=O)NCCS(N)(=O)=O)S(=O)(=O)Cc4ccc(C(F)(F)F)cc4)sc3c2)cc1 (stereo not drawn) , what value of log10(IC50) is listed for hepatic lipase (HL) (Homo sapiens (Human))?
1.95

* * *

Entries and their IC50
Molecular target: Endothelial lipase (EL) (Homo sapiens (Human), UniProt Q9Y5X9)
Assay: EL assay: endothelial lipase activity with fluorescent substrate A10070 in DMPG vesicles
Format: biochemical
Conditions: EL from conditioned media of HT-1080 cells; 30 min incubation with compound at 37° C.; A10070/DMPG vesicles

Answered examples (5):
* CS(=O)(=O)C(C(=O)NCCS(N)(=O)=O)c1nc2ccc(-c3ccc4c(c3)CC(=O)N4)cc2s1 (stereo not shown) [Example B180] | < 10 nM
* NS(=O)(=O)CCNC(=O)C(NC(=O)c1cccnc1)c1nc2ccc(-c3ccc(C(=O)N4CCOCC4)cc3)cc2s1 (stereo not shown) [Example A6] | < 10 nM
* CS(=O)(=O)C(C(=O)NCCS(N)(=O)=O)c1nc2ccc(-c3ccnc(F)c3)cc2s1 (stereo not shown) [Example B8] | < 10 nM
* CC(C)(C)OC(=O)c1ccc2sc(C(C(=O)NCCS(N)(=O)=O)S(C)(=O)=O)nc2c1 (stereo not shown) [Example B391] | 25 nM
* CCCC(=O)NC(C(=O)NCCS(N)(=O)=O)c1nc2ccc(-c3ccc(F)nc3)cc2s1 (stereo not shown) [Example A3] | < 10 nM

For the record CCCC(=O)NC(C(=O)NCCS(N)(=O)=O)c1nc2ccc(-c3ccc(C(=O)N4CCOCC4)cc3)cc2s1 (stereo not shown) [Example A5] , what value of IC50 is listed for Endothelial lipase (EL) (Homo sapiens (Human), UniProt Q9Y5X9)?
< 10 nM

For the record CNc1ccc(-c2ccc3nc(C(C(=O)NCCS(N)(=O)=O)S(C)(=O)=O)sc3c2)cc1 (stereo not shown) [Example B18] , what value of IC50 is listed for Endothelial lipase (EL) (Homo sapiens (Human), UniProt Q9Y5X9)?
13 nM
